log10 of half-life values by entry
# protocol text: Metabolic stability in mouse liver microsomes assessed as half life
# Format: ADME, Microsome
assay endpoint: log10 of half-life (log10 of the value in min)

>  <compound>
O=c1ccc2ncc(F)c3c2n1CC3C[C@H]1OC[C@H](NCc2cc3c(nn2)OCCS3)CO1 (some centres undefined)

>  <log10 of half-life>
2.05

$$$$
>  <compound>
O=c1ccc2ccc(F)c3c2n1CC3C[C@H]1OC[C@H](NCc2cc3c(cn2)OCCC3)CO1 (some centres undefined)

>  <log10 of half-life>
0.56

$$$$
>  <compound>
COc1ccc2ncc(F)c(C[C@H](O)[C@H]3OC[C@H](NC(=O)c4ccc5c(n4)NC(=O)CO5)CO3)c2n1

>  <log10 of half-life>
0.75

$$$$
>  <compound>
O=c1ccc2ccc(F)c3c2n1CC3C[C@H]1OC[C@H](NCc2cc3c(nn2)OCCO3)CO1 (some centres undefined)

>  <log10 of half-life>
2.01

$$$$
>  <compound>
O=c1ccc2ccc(F)c3c2n1CC3C[C@H]1OC[C@H](NCc2ccc3c(c2)OCCO3)CO1 (some centres undefined)

>  <log10 of half-life>
0.51

$$$$
>  <compound>
O=C1COc2ccc(CN[C@H]3CO[C@H](CC4Cn5c(=O)ccc6ncc(F)c4c65)OC3)nc2N1 (some centres undefined)

>  <log10 of half-life>
1.82

$$$$
>  <compound>
O=c1ccc2ncc(F)c3c2n1CC3C[C@H]1OC[C@H](NCc2ccc3c(c2)OCCO3)CO1 (some centres undefined)

>  <log10 of half-life>
1.14

$$$$
>  <compound>
O=c1ccc2ncc(F)c3c2n1CC3C[C@H]1OC[C@H](NCc2cc3c(cn2)OCCC3)CO1 (some centres undefined)

>  <log10 of half-life>
1.26

$$$$
>  <compound>
COc1ccc2ncc(F)c(C[C@H](O)[C@H]3OC[C@H](NC(=O)c4ccc5c(c4)OCCO5)CO3)c2n1

>  <log10 of half-life>
1.15

$$$$

---

# system tested: DNA gyrase (Staphylococcus aureus, UniProt P0A0K8+P20831)
# Sequence (P0A0K8 whole entry): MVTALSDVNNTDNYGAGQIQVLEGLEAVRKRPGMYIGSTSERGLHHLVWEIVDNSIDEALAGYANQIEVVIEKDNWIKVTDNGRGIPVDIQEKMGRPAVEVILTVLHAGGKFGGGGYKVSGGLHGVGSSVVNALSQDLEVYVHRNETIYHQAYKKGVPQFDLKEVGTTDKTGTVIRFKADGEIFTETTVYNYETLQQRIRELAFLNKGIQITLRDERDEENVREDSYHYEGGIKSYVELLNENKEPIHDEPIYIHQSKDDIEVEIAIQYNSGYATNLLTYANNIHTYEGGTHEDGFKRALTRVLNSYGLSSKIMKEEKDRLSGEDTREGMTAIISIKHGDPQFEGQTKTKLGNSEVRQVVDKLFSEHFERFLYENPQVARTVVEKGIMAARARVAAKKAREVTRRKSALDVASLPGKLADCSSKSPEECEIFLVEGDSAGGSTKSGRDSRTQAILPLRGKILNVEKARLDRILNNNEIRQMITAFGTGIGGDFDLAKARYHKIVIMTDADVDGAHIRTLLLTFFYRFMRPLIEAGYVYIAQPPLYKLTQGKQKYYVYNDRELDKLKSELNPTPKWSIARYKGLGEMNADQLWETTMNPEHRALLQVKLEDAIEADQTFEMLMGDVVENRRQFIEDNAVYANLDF
# Sequence (P20831 whole entry): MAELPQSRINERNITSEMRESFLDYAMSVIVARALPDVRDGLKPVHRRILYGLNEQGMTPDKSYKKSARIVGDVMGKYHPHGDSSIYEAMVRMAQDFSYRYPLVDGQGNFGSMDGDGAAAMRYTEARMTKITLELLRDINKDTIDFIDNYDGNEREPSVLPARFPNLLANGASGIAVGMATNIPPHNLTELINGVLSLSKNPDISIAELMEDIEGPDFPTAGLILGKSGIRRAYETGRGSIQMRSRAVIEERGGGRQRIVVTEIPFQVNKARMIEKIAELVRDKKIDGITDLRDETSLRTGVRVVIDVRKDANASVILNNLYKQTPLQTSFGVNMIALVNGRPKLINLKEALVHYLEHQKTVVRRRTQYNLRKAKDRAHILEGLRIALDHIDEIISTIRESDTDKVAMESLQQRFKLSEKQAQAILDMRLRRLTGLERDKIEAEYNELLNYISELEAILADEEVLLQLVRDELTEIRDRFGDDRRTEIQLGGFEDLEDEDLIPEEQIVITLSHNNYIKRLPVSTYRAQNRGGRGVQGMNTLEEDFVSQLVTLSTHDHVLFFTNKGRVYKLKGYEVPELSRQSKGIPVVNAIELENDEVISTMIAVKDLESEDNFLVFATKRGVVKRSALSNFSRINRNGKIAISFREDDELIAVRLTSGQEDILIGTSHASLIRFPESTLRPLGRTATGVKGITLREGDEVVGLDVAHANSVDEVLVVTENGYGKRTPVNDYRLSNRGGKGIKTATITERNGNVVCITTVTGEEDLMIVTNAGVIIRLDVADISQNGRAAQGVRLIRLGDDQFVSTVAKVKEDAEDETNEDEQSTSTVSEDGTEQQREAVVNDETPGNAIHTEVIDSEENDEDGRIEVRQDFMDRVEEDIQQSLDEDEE
# protocol text: Inhibition of Staphylococcus aureus DNA gyrase supercoiling activity incubated for 25 min by ethidium bromide/bromophenol blue staining based agarose gel electrophoresis analysis
pIC50: −log10 of the molar value.
Label 1 when pIC50 is at or above 6; anything below gets 0.

>  <compound>
O=c1ccc2ncc(F)c3c2n1CC3C[C@H]1OC[C@H](NCc2cc3c(nn2)OCCS3)CO1 (stereo partly drawn)

>  <system tested>
DNA gyrase (Staphylococcus aureus, UniProt P0A0K8+P20831)

>  <assigned label>
0

$$$$
>  <compound>
O=c1ccc2ncc(F)c3c2n1CC3C[C@H]1OC[C@H](NCc2cc3c(cn2)OCCC3)CO1 (stereo partly drawn)

>  <system tested>
DNA gyrase (Staphylococcus aureus, UniProt P0A0K8+P20831)

>  <assigned label>
0

$$$$
>  <compound>
O=c1ccc2ccc(F)c3c2n1CC3C[C@H]1OC[C@H](NCc2ccc3c(c2)OCCO3)CO1 (stereo partly drawn)

>  <system tested>
DNA gyrase (Staphylococcus aureus, UniProt P0A0K8+P20831)

>  <assigned label>
1

$$$$
>  <compound>
O=c1ccc2ccc(F)c3c2n1CC3C[C@H]1OC[C@H](NCc2cc3c(cn2)OCCC3)CO1 (stereo partly drawn)

>  <system tested>
DNA gyrase (Staphylococcus aureus, UniProt P0A0K8+P20831)

>  <assigned label>
1

$$$$
>  <compound>
COc1ccc2ncc(F)c(C[C@H](O)[C@H]3OC[C@H](NC(=O)c4ccc5c(n4)NC(=O)CS5)CO3)c2n1

>  <system tested>
DNA gyrase (Staphylococcus aureus, UniProt P0A0K8+P20831)

>  <assigned label>
1

$$$$
>  <compound>
O=c1ccc2ncc(F)c3c2n1CC3C[C@H]1OC[C@H](NCc2ccc3c(c2)OCCO3)CO1 (stereo partly drawn)

>  <system tested>
DNA gyrase (Staphylococcus aureus, UniProt P0A0K8+P20831)

>  <assigned label>
1

$$$$
>  <compound>
COc1ccc2ncc(F)c(C[C@H](O)[C@H]3OC[C@H](NC(=O)c4ccc5c(c4)OCCO5)CO3)c2n1

>  <system tested>
DNA gyrase (Staphylococcus aureus, UniProt P0A0K8+P20831)

>  <assigned label>
1

$$$$

---

IC50 values by entry
# protocol text: Inhibition of Neisseria gonorrhoeae DNA gyrase supercoiling activity incubated for 25 min by ethidium bromide/bromophenol blue staining based agarose gel electrophoresis analysis
assay endpoint: IC50 (nM)

>  <molecular string>
COc1ccc2ncc(F)c(C[C@H](O)[C@H]3OC[C@H](NCc4ccc5c(n4)NC(=O)CS5)CO3)c2n1

>  <quantity unit>
nM

>  <result>
390

$$$$
>  <molecular string>
COc1ccc2ncc(F)c(C[C@H](O)[C@H]3OC[C@H](NCc4cc5c(nn4)OCCS5)CO3)c2n1

>  <quantity unit>
nM

>  <result>
33000

$$$$
>  <molecular string>
COc1ccc2ncc(F)c(C[C@H](O)[C@H]3OC[C@H](NC(=O)c4ccc5c(n4)NC(=O)CS5)CO3)c2n1

>  <quantity unit>
nM

>  <result>
640

$$$$

---

# protocol text: Cytotoxicity activity against human K562 cells assessed as inhibition of cellular growth
# Format: toxicity, cell-based
IC50 values by entry

>  <compound>
COc1ccc2ncc(F)c(C[C@H](O)[C@H]3OC[C@H](NC(=O)c4ccc5c(n4)NC(=O)CO5)CO3)c2n1

>  <IC50>
0.49 µM

$$$$
>  <compound>
COc1ccc2ncc(F)c(C[C@H](O)[C@H]3OC[C@H](NC(=O)c4ccc5c(n4)NC(=O)CS5)CO3)c2n1

>  <IC50>
7.5 µM

$$$$
>  <compound>
O=c1ccc2ccc(F)c3c2n1CC3C[C@H]1OC[C@H](NCc2ccc3c(c2)OCCO3)CO1 (stereo not given in full)

>  <IC50>
29.1 µM

$$$$
>  <compound>
O=C1COc2ccc(CN[C@H]3CO[C@H](CC4Cn5c(=O)ccc6ncc(F)c4c65)OC3)nc2N1 (stereo not given in full)

>  <IC50>
> 200 µM

$$$$
>  <compound>
O=c1ccc2ccc(F)c3c2n1CC3C[C@H]1OC[C@H](NCc2cc3c(nn2)OCCO3)CO1 (stereo not given in full)

>  <IC50>
156 µM

$$$$

---

IC50 values by entry
# protocol text: Cytotoxicity activity against human K/VP.5 cells assessed as inhibition of cellular growth
# Format: toxicity, cell-based

>  <compound>
COc1ccc2ncc(F)c(C[C@H](O)[C@H]3OC[C@H](NC(=O)c4ccc5c(c4)OCCO5)CO3)c2n1

>  <IC50>
6 µM

$$$$
>  <compound>
O=c1ccc2ccc(F)c3c2n1CC3C[C@H]1OC[C@H](NCc2cc3c(nn2)OCCO3)CO1 (stereo partly drawn)

>  <IC50>
171 µM

$$$$
>  <compound>
O=c1ccc2ccc(F)c3c2n1CC3C[C@H]1OC[C@H](NCc2cc3c(cn2)OCCC3)CO1 (stereo partly drawn)

>  <IC50>
85 µM

$$$$
>  <compound>
COc1ccc2ncc(F)c(C[C@H](O)[C@H]3OC[C@H](NC(=O)c4ccc5c(n4)NC(=O)CS5)CO3)c2n1

>  <IC50>
> 100 µM

$$$$
>  <compound>
O=C1CSc2ccc(CN[C@H]3CO[C@H](CC4Cn5c(=O)ccc6ncc(F)c4c65)OC3)nc2N1 (stereo partly drawn)

>  <IC50>
128 µM

$$$$
>  <compound>
O=C1COc2ccc(CN[C@H]3CO[C@H](CC4Cn5c(=O)ccc6ccc(F)c4c65)OC3)nc2N1 (stereo partly drawn)

>  <IC50>
127 µM

$$$$
>  <compound>
O=c1ccc2ncc(F)c3c2n1CC3C[C@H]1OC[C@H](NCc2cc3c(cn2)OCCC3)CO1 (stereo partly drawn)

>  <IC50>
187 µM

$$$$
>  <compound>
O=C1COc2ccc(CN[C@H]3CO[C@H](CC4Cn5c(=O)ccc6ncc(F)c4c65)OC3)nc2N1 (stereo partly drawn)

>  <IC50>
> 200 µM

$$$$

---

# protocol text: Cytotoxicity activity against human K/VP.5 cells assessed as inhibition of cellular growth
# Type: toxicity, cell-based
assay endpoint: IC50 (µM)

>  <molecule>
O=c1ccc2ccc(F)c3c2n1CC3C[C@H]1OC[C@H](NCc2cc3c(nn2)OCCS3)CO1 (stereo not given in full)

>  <result>
103

$$$$
>  <molecule>
COc1ccc2ncc(F)c(C[C@H](O)[C@H]3OC[C@H](NC(=O)c4ccc5c(n4)NC(=O)CO5)CO3)c2n1

>  <result>
3.1

$$$$
>  <molecule>
O=c1ccc2ncc(F)c3c2n1CC3C[C@H]1OC[C@H](NCc2cc3c(nn2)OCCS3)CO1 (stereo not given in full)

>  <result>
197

$$$$
>  <molecule>
O=c1ccc2ncc(F)c3c2n1CC3C[C@H]1OC[C@H](NCc2ccc3c(c2)OCCO3)CO1 (stereo not given in full)

>  <result>
39.2

$$$$
>  <molecule>
O=c1ccc2ccc(F)c3c2n1CC3C[C@H]1OC[C@H](NCc2ccc3c(c2)OCCO3)CO1 (stereo not given in full)

>  <result>
33.9

$$$$
